The reported measurements were obtained from the supplement of paper PMC11061612.

# System: NCI-H1781 (Lung Adenocarcinoma);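 note: after 72 h of two-drug dosing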
# experimental.protocol: Bliss excess, mean over the matrix (fraction); higher = more synergy
Consider the following molecules; for each one, report its Bliss excess.
Answers are plain numbers.

CC(=O)c1c(C)c2cnc(Nc3ccc(N4CCNCC4)cn3)nc2n(C2CCCC2)c1=O [Palbociclib] + CN(CC[C@H](CSC1=CC=CC=C1)NC2=C(C=C(C=C2)S(=O)(=O)NC(=O)C3=CC=C(C=C3)N4CCC(CC4)[C@H](C5=CC=CC=C5C6=CC=C(C=C6)Cl)O)S(=O)(=O)C(F)(F)F)CCO [AZD4320] (first compound max 10 µM, 7x7, partner max 1 µM); -0.0811

Query NC1(C(=O)N[C@@H](CCO)c2ccc(Cl)cc2)CCN(c2ncnc3[nH]ccc23)CC1 [Capivasertib] + CCN(CCO)CCCOc1ccc2c(Nc3cc(CC(=O)Nc4cccc(F)c4)[nH]n3)ncnc2c1 [AZD2811] (first compound max 10 µM, 7x7, partner max 1 µM) yields Bliss excess of -0.0433
